- system: Renin (Homo sapiens, UniProt P00797)
- Sequence (P00797 whole entry): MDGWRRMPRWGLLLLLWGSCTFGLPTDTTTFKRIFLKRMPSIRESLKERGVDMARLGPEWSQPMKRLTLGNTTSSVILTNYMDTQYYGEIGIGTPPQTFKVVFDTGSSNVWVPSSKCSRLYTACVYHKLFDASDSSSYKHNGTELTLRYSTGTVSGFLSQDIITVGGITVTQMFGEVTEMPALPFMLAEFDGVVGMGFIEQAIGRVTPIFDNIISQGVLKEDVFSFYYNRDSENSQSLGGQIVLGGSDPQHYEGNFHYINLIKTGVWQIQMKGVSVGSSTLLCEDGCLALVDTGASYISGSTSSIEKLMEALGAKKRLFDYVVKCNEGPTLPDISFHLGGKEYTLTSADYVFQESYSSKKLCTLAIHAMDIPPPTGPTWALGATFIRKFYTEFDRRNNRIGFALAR
- assayExplanation: Inhibitory activity against human plasma renin
pIC50: −log10 of the molar value. *1 amine or outer side, *2 acyl side, *3 side chain or, on linkers, in order; H or OH if unused. Where a SMILES comes first, the peptide text is derived from it. [ ]: non-standard residue; d: D form. The star is where a group is joined. X2 = CC[C@H](C)[C@H](N*)C(=O)NC(=O)[C@@H](N)Cc1ccccc1; X1 = CC(C)CC(N[*:1])C(O)CC(=O)[*:2]; hhPhe = N[C@@H](CCCc1ccccc1)C(=O)O; Nva = CCC[C@H](N)C(=O)O; For = O=C*
measuredEndpoint: pIC50

compound="CCC[C@H](NC(=O)[C@H](Cc1c[nH]cn1)NC(=O)[C@H](Cc1ccccc1)NC(=O)[C@@H]1CCCN1C(=O)[C@H](Cc1c[nH]cn1)NC(=O)[C@@H]1CCCN1)C(=O)N[C@H](C(=O)NC(=O)[C@@H](N)Cc1ccccc1)[C@@H](C)CC (H-PHPFH[Nva]-X2)" measuredendpoint=pIC50 qualifiersign=< measurednumber=3.00
compound="CC[C@H](C)[C@H](NC(=O)[C@H](CCCc1ccccc1)NC(=O)[C@H](Cc1c[nH]cn1)NC(=O)[C@H](Cc1cn(C=O)c2ccccc12)NC(=O)[C@@H]1CCCN1C(=O)[C@H](Cc1cn(C=O)c2ccccc12)NC(=O)[C@@H]1CCCN1)C(=O)N[C@@H](Cc1cn(C=O)c2ccccc12)C(N)=O (H-PW(For)PW(For)H[hhPhe]IW(For)-NH2)" measuredendpoint=pIC50 qualifiersign== measurednumber=7.31
compound="CC(C)CC(NC(=O)[C@H](Cc1cnc[nH]1)NC(=O)[C@H](Cc1ccccc1)NC(=O)[C@@H]1CCCN1C(=O)[C@@H](N)Cc1cnc[nH]1)C(O)CC(=O)N[C@H](C(=O)N[C@@H](Cc1ccc(O)cc1)C(=O)N[C@@H](CCCCN)C(=O)O)C(C)C (stereo not given in full) (H-HPFH[X1]VYK-OH)" measuredendpoint=pIC50 qualifiersign== measurednumber=6.40
compound="CC[C@H](C)[C@H](NC(=O)CC(O)C(CC(C)C)NC(=O)[C@H](Cc1ccccc1)NC(=O)[C@H](Cc1ccccc1)NC(=O)[C@@H]1CCCN1C(=O)[C@H](Cc1c[nH]cn1)NC(=O)[C@@H]1CCCN1)C(=O)NC(=O)[C@@H](N)Cc1ccccc1 (stereo not given in full) (H-PHPFF[X1]-X2)" measuredendpoint=pIC50 qualifiersign== measurednumber=7.52
compound="CC[C@H](C)[C@H](NC(=O)CC(O)C(CC(C)C)NC(=O)[C@H](Cc1cnc[nH]1)NC(=O)[C@H](Cc1ccccc1)NC(=O)[C@@H]1CCCN1C(C)=O)C(=O)N[C@@H](Cc1cnc[nH]1)C(=O)N[C@@H](CCCCN)C(=O)O (stereo not given in full) (Ac-PFH[X1]IHK-OH)" measuredendpoint=pIC50 qualifiersign== measurednumber=7.40

The measured values listed here are drawn from ChEMBL document CHEMBL1123793.
